- Test system: Z-138 cell line
- assay procedure: Z-138 Proliferation Assay (Cell Titer Glo, 5 days)
- Assay type: cell-based
- assay setup: Homo sapiens, 120 h; Z-138 cells, 5 days, Cell Titer Glo; read-out: Proliferation EC50
pEC50: −log10 of the molar value.
quantity measured: pEC50

Some compounds with known pEC50 results, for comparison:
CC1c2ccccc2CCN1C[C@@H](O)CNC(=O)c1cc(NC2COC2)ncn1 (stereo partly drawn); < 5.30
CC(C)(O)CN1CCC(Nc2cc(C(=O)NC[C@H](O)CN3CCc4ccccc4C3)ncn2)CC1; 6.00 to 7.00
CC(NC(=O)c1cc(NC2CCN(C(=O)C3CC3)CC2)ncn1)C(O)CN1CCc2ccccc2C1 (stereo not drawn); 6.00 to 7.00
COCCN(C)c1cc(NC2CCN(C(C)=O)CC2)cc(C(=O)NC[C@H](O)CN2CCc3ccccc3C2)n1; > 7.00
CCCC(=O)N1CCC(Nc2cc(C(=O)NC[C@H](O)CN3CCc4ccccc4C3)ncn2)CC1; > 7.00
CC(=O)N1CCN(c2nc(NC3CNC3)cc(C(=O)NC[C@H](O)CN3CCc4ccccc4C3)n2)CC1; 5.00 to 6.00
COCCN1CC(Nc2ccnc(C(=O)NC[C@H](O)CN3CCc4ccccc4C3)c2)C1; 5.00 to 6.00
CC(C)C(=O)N1CCN(c2nc(NC3COC3)cc(C(=O)NC[C@H](O)CN3CCc4ccccc4C3)n2)CC1; > 7.00
CCOc1nc(NC2CNC2)cc(C(=O)NC[C@H](O)CN2CCc3ccccc3C2)n1; 5.00 to 6.00
CCS(=O)(=O)CCNc1cc(C(=O)NC[C@H](O)CN2CCc3ccccc3C2)ncn1; 5.00 to 6.00

Could I get pEC50 for every one of these entries?
1. CC(=O)N1CCC(Nc2cc(C(=O)NCC(C)(O)CN3CCc4ccccc4C3)ncn2)CC1 (stereo not drawn)
2. CC(=O)N1CC(Nc2cc(C(=O)NC[C@H](O)CN3CCc4ccccc4C3)nc(N3CCCCC3)n2)C1

["5.00 to 6.00", "> 7.00"]
